Examples of sequences with documented soluble fraction (log2) follow.
test: soluble fraction after stress (log2 fold change); higher = more stays soluble; pooled small domains, quantitative proteomics;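 also: 20 min heating vs room temperature control held 20 min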
recorded_conditions: stress: 75 degC
readout_kind: soluble fraction (log2)

INSERT INTO assay_data (residue_codes, measured) VALUES
  ('HMDAVSYTQFMQDAKAGRIKKVIVHQSGILDVTTTEGRRFNLTSPGDLWMVGDLVKDGVDVVGAP', -0.234),
  ('HMQMEYEKAIAYILDKIKSGELSIGSKLPAERVIADTLHIGRNSTREALSILHGMGMVDRVHGSGNYISEH', -0.752),
  ('HMESIAEIDRMNAKIFMDEFQDSLSIMQKTTNPETFFSRYDLAMERLDNMVELQQKGIKFTSDLSSLKAQ', 0.0865),
  ('HMKLTKPKLIQLIHIAKSKLNMDELSYRVLLDNLTGKTSTTKMTVGELLKVYESMKDKGFKPQV', -0.993),
  ('HMGVSAGQVRGLIRNLIAGEDKSKPLSDLALERELEKREIRISRRTVAKYRAELGIPNSDQRRYLP', -1.68),
  ('HMSFPLKRGSKGNRVTQLQNALVKKFGASILPKYGVDGMFGKEVEAALVRAKLPTSINESTYNSFV', 0.125),
  ('HMQQSQLDDIKSVVGGDEGYNKLREWTQANVPDETLKAFDKILDTQDPTMIKVAVEGFAAQMRQAE', -0.232),
  ('HMSAGKKSFTNSEFRRFLDALGEGLIVKHKKLGEGVVVEIRGDKAVIQFGDEQRLYELKTLYEYDLLR', -0.628);

###

Examples of sequences with documented soluble fraction (log2) follow.
test: soluble fraction after stress (log2 fold change); higher = more stays soluble; pooled small domains, quantitative proteomics
recorded_conditions: stress: 75 degC
readout_kind: soluble fraction (log2)

INSERT INTO measurements (residue_codes, readout_kind, measured) VALUES
  ('HMKAQTVPQFVGMTMTEAEEKASELGITLIEGAVVDSVEPKDTILTQDVDEGTEITGKMEIMVTISS', 'soluble fraction (log2)', 0.324),
  ('HMPRNEIQRSVLNELVQWIKNNLAKKLTMQALSRFSGYSEWHLFRLFRHYFNMSPMAYIRQQRMQ', 'soluble fraction (log2)', -0.366),
  ('HMKKISAKQQQILDYISSYSLEHGYPPSVREIGAEMGLRSPSTVHAHLKKLQEAGYLEPNEHKSRALTP', 'soluble fraction (log2)', -0.146),
  ('HMLLGDYIQKLRNQRGLSQQEFADKLGIGRSTLANYEQNKRSPDYETLIEISKFFNVSIDELLGV', 'soluble fraction (log2)', -1.05),
  ('HMQETALANFETNEGVQKVKQYVQENVPSLRGSNIVGVWTSYTPEGLTNYRTRFLTQDGQFVEVNLAYQ', 'soluble fraction (log2)', -0.203),
  ('HMDDPWHNLANAIVAVAADDYRSALRNEDEGLLKSLELFFHSEWYRILTDVDADRLLGMLRRERS', 'soluble fraction (log2)', -1.71),
  ('HMKRVVFFNGISWYHRTKELLDDMTTKYGKKGGFATPEEAEKSYWEYEERYKDRQRELQVAYLKN', 'soluble fraction (log2)', -1.79),
  ('HMGNQALSSVLSDIAGIGPVKTKELLRVYPDLDSLRQAPVEEVAKVKGIGRQLAQKIHDHFSSR', 'soluble fraction (log2)', -0.0292);

###

test: soluble fraction after stress (log2 fold change); higher = more stays soluble; pooled small domains, quantitative proteomics
recorded_conditions: stress: 75 degC
Examples of sequences with documented soluble fraction (log2) follow.
readout_kind: soluble fraction (log2)

INSERT INTO results (residue_codes, measured) VALUES
  ('HMITAEQENILFEKASDDISNNIINKGIWTKAYSQAGGDESKQKAIYIDLLVNYYKMLIKAGEEFEDI', -2.42),
  ('HMGADGIPGKNGENGETSYVHFAYATSADGKTGFSTTDTVGKTYMGQYADFEKADSEDPTKYRWGKFQGP', 0.0581),
  ('HMGSIEASFEEDVRRYLARKSMTTTEISKKMRQKRPDMSRDQLMTLLANAIKRIKPIKKKIKGTLYLSLE', -2.07),
  ('HMEEVYVPDIRDKSISDAKKILSQMGLKYRIEGEGYDDSTVIKDQTPKPGALLAKDSVVIAYINE', 0.0833),
  ('HMDGISANAVKALIESLIAGEDKRKPLSDQAMSDRLALQGIVLARRTVAKYREELNFPPAHQRKQK', -1.41),
  ('HMEREQNIAQGREVVQRELKRLGLTDVFTVEDIGRALKFDDIDEFLSKVGFGDIQTAKITGAIALMQQALR', -0.0649),
  ('HMSKTQYTFREVGSQFELHAPSTNHKIMVDANHPKYGWLSSQEAGRVINVYESGKMTSSQDYYGLYKQS', -0.092),
  ('HMETPLSAADFKIVFGEEYEIGTDANGLPKMGSRINRQLQNRFLTWASVNKRKATMSAYQDWVASDPAAQ', -0.323),
  ('HMLLPANLTKSQRNIAERVARGQSNLEIAADLNITERTVKAHLTSIYEKTKTGNRLNLALLINLG', -0.289),
  ('HMTGGIWVQIQGAVERPGVYSLPRDSRLKDLLEAAGGFGRDADTEKVNQAARLEDGAMYRVPRQGEG', 0.49),
  ('HMTANPHKPEPLQIDTSDITPGVTVIHKAFGNGTVVSVDNNRILIDFDGIEKKFPFPGAFLYGFLQK', -0.547),
  ('HMTGREIDQLFSVVNDLKAKGVGMVFISHHLDEIARIADSVSVLRDGGFVAEVPASTPEKKLVTLMVGRDI', -0.228),
  ('HMDGPGDRLLIAIQENSMTQKKFAQLIGMSPNGLNSIIKGKKRLSRVLAIATERLTGVRADWILQNEQPK', -0.0913),
  ('HMSSLKKISIDELSPGMYVHSIVEQKGSVKIKSQGKVLKQAVVDALRKRGVKTLLIDLSKQFNPETGEP', -0.985),
  ('HMENEDMTGDIRVIDYIRNVAEYIQTTKGQASASQMLDRFLFPPELQYTPLDKLSGGEQRRLYLLKVLMEA', 0.0433),
  ('HMPRIYSITINPEKIRTVIGPGGKVIKDITAKTGTKIEIDDSGKVDIFSPDEEHARMAVEIINTLTEE', 0.0671),
  ('HMGESFEELAREISDDTGSKTEGGETGLFPRGVMAPQFEEAAFLLKVGDISEPIRTKFGYHIIKLKEIKP', -0.0117),
  ('HMQDTTLTSQILRVPSSVNINDLANVLKSLAGKNTVVAPYKAANTIIITGYAPNVRRVLSLANELIPRLDV', -1.18),
  ('HMIPDGKWKEDPISDGQKNFINSLIEQAIDAGQDELGAEAKKYLASGEATKGNASAMIDKLKSAL', 0.39),
  ('HMQMSWDAVKARLQDIVNNEDKTKPFNDEMLASKLKEQGIEIARRTVVKYRQQLGIPAARLRKK', -0.752),
  ('HMFAATGVVNAPSGLVLRETASKGGNPLATVPDKAQVEIVEEDGEWYKVKVNEQTGYLFAEFVNKTE', -0.0895),
  ('HMAVDVNKATAAELDSIKGIGPAISAKILEEKKKGGNFKDWNDLVTRVSGVGEANAAKFSSEGLTVGGAS', 0.0168),
  ('HMPTSPKANFLKELPQEFTRKQAVTIGDKLNIKERTVDNYLAKLEQAGYLVKPKAGYYQKIKS', -0.0924),
  ('HMLYKNIAKKLRFRINSDEFAIGDVLPTERQLMEEYQASRVSIRKAIDELVAIDLIEKKQGSGTYIKQKEV', -1.89),
  ('HMGATFITSSKDNAINIRQAAGTDSKVIETIKNGHILESSEKSGEWYKVTYYDSDIKKTFTGYIHNSQLK', 0.376),
  ('HMANADVVLVDLDKEYTVDAAKFHSVVKHSPFNGFAVKGAPVLTIVRGTVVAENGEVVGQPGHSKMVRP', 0.108),
  ('HMSAEDQRRASQEAAYRFMQVMAGNEAGFEDAARALFAGDNHRFEVLIQSWPDDVRDHVSLLSVDAFA', -0.651),
  ('HMGIIVDMSKIKQMLQLSEAGHSNRKIALELGINKETVNNYMQLIRNGRLDIRQLLKMDDPELERRFHA', -0.965),
  ('HMEMGNKIKELRTKLGITQEELSKTLNVSSQAVSKWENGGLPDLELIPEIAKYFNVTTDYLFDIK', -0.187),
  ('HMADYSGYLGKKGKVIAPLRPAGTALIDGERVDVVSFGDYIDKDSEIEVVKIEGSKLLVKKY', 0.28),
  ('HMTTIFDNINGELRRRHLTQQDLAKTIEIDRRTWSKWQDKNDMPASVLLQIAKWLNVTLDYLTRD', -2.57),
  ('HMALQDKYKELTDAATAAGVTDLQVREQDNVLYIDGTAPSGAVKDQLWAIYDKIDPNFVSGDLVLNVNVD', 0.0863),
  ('HMYATQLLQLEEMGFFDRAENIRALRATNGNVNAAVERL', -0.202);

These entries and their values trace back to the domain aggregation screens of Martell et al. (2025).
